Test system: transactivating tegument protein VP16 (Human herpesvirus 1)
Procedure Text: VP16 transactivation reporter inhibitors, counter-screen for SRC2 inhibitor project, cell-based, luminescence, single concentration (AID 652007)
Assay Context: cell-based VP16 transactivation luciferase reporter, at 8.9 µM, stronger effect = higher value
Rule: criterion met for inhibition not less than 10%, criterion not met for anything less.

# Molecule, Measured Target, Class Name
measured = [
    ("O=C(O)COc1ccc(-c2nccc(-c3ccccn3)n2)cc1", "transactivating tegument protein VP16 (Human herpesvirus 1)", "criterion met"),
    ("COc1cccc(N2C(=O)CC(NNC(=O)c3cccs3)C2=O)c1 (stereo unspecified)", "transactivating tegument protein VP16 (Human herpesvirus 1)", "criterion not met"),
    ("Nc1ccc(OC(=O)Nc2ccc(O)cc2)cc1", "transactivating tegument protein VP16 (Human herpesvirus 1)", "criterion met"),
    ("COc1cc(OC)c(-c2c3cc(O)c(=O)cc-3oc3cc(O)c(O)cc23)cc1OC", "transactivating tegument protein VP16 (Human herpesvirus 1)", "criterion not met"),
    ("O=[N+]([O-])c1ccc(-c2ccc(S(=O)(=O)NCCN3CCCC3)cc2)cc1", "transactivating tegument protein VP16 (Human herpesvirus 1)", "criterion met"),
    ("COc1ccccc1C(=O)Nc1nc2ccccc2[nH]1", "transactivating tegument protein VP16 (Human herpesvirus 1)", "criterion met"),
    ("Cc1nnc(SCC2=C(C(=O)O)N3C(=O)C(NC(=O)Cn4nc(C)c(Cl)c4C)C3SC2)s1 (stereo unspecified)", "transactivating tegument protein VP16 (Human herpesvirus 1)", "criterion not met"),
    ("COc1cccc(C2=CC(=O)CC(C)(C)C2)n1", "transactivating tegument protein VP16 (Human herpesvirus 1)", "criterion not met"),
    ("Cc1ccc(C(=O)O/N=C(\\N)c2ccccn2)c(Cl)c1", "transactivating tegument protein VP16 (Human herpesvirus 1)", "criterion met"),
    ("CC(C)(C)c1ccc(C(=O)Nc2sc3c(c2C(=O)O)CCC3)cc1", "transactivating tegument protein VP16 (Human herpesvirus 1)", "criterion not met"),
    ("COc1ccc(-c2cn[nH]c2-c2ccc(OC)cc2O)cc1", "transactivating tegument protein VP16 (Human herpesvirus 1)", "criterion not met"),
]

====

Measured Target: Oxysterols receptor LXR-beta (Homo sapiens)
Procedure Text: LXR agonists, Gal4 luciferase reporter, confirmation, counter-screen for hgDAF-12 agonist project, cell-based, luminescence, HEK293, H. glycines campaign (AID 743051)
Assay Context: 24 h, at 6.8 µM, stronger effect = higher value
This is one part of the list.

# Molecule, Measured Target, Unit Symbol, activation
records = [
    ("CC(=O)Nc1cccc(C(=O)OCC(=O)c2ccc3c(c2)OCO3)c1", "Oxysterols receptor LXR-beta (Homo sapiens)", "%", 1.1),
    ("O=[N+]([O-])c1ccc2c(c1)Nc1nc3ccccc3nc1N2", "Oxysterols receptor LXR-beta (Homo sapiens)", "%", 1.35),
    ("Cc1cccc(NC(=O)/C=C/c2ccc3c(c2)OCO3)n1", "Oxysterols receptor LXR-beta (Homo sapiens)", "%", 0.84),
    ("CC1C/C(=N/NC(=O)c2cccs2)CC(C)(C)C1 (stereo unspecified)", "Oxysterols receptor LXR-beta (Homo sapiens)", "%", 0.21),
    ("Cc1ccc2nc(-c3ccc(SCC(=O)Nc4cc(C)on4)nc3)[nH]c2c1", "Oxysterols receptor LXR-beta (Homo sapiens)", "%", 0.54),
    ("O=C(O)c1ccc2c(c1)C(=O)N(c1ccc(/C=C/C(=O)c3ccccc3)cc1)C2=O", "Oxysterols receptor LXR-beta (Homo sapiens)", "%", 0.05),
    ("COc1ccc(Nc2ncc(F)c(N3CCOCC3)n2)cc1", "Oxysterols receptor LXR-beta (Homo sapiens)", "%", 1),
    ("O=C(Nc1ncccc1O)c1ccc(C(=O)c2ccccc2)cc1", "Oxysterols receptor LXR-beta (Homo sapiens)", "%", 0.71),
    ("O=C(NCCOc1ccccc1)c1ccccc1", "Oxysterols receptor LXR-beta (Homo sapiens)", "%", 0.69),
    ("COc1ccc(NC(=S)N2N=CCC2c2ccccc2)cc1 (stereo unspecified)", "Oxysterols receptor LXR-beta (Homo sapiens)", "%", 0.76),
    ("O=C(Nc1ccn(Cc2ccccc2)n1)c1cccc(F)c1", "Oxysterols receptor LXR-beta (Homo sapiens)", "%", 0.7),
]
